Where do these numbers come from? They come from patent US6180640A.

assay: Pharmacokinetics in rats after i.v. dosing: plasma and tissue content; assay type: in vivo; conditions: rat, brain, iv, 3.6 mg/kg, rat 2, 4 h post dose, 3.6 mg/kg i.v., liposomal; read-out: Compound Content in Brain
property label: concentration at 4 h (ng/g)
Reply with just the number (in ng/g).

concentration at 4 h reading for Brc1ccc2[nH]cc([C@H]3Nc4ccc(C#CCN5CCCCC5)cc4[C@H]4OCC[C@@H]34)c2c1 (relative stereo) [drawing 54] : 400

* * *

assay: Pharmacokinetics in rats after i.v. dosing: plasma and tissue content; format: in vivo; conditions: rat, liver, iv, 3.6 mg/kg, rat 2, 4 h post dose, 3.6 mg/kg i.v., liposomal; read-out: Compound Content in Liver
property label: concentration at 4 h (ng/g)
Reply with just the number (in ng/g).

concentration at 4 h reading for Brc1ccc2[nH]cc([C@H]3Nc4ccc(C#CCN5CCCCC5)cc4[C@H]4OCC[C@@H]34)c2c1 (relative stereo) [drawing 54] : 3000
